Here the recorded GI50 is given for each entry.
# System: SK-MEL-28
# experimentSummary: NCI tumour cell line growth inhibition, 48 h
Calls of active or inactive are those of the source. No stated cut-off is given here; in the data, active = GI50 up to about 1.1 µM and inactive = higher.

{"compound": "COc1ccc2[nH]c3c(C)c4c(c(C)c3c2c1)CN(C)CC4", "GI50": "14.2 µM (inactive)"}
{"compound": "CC(C)=CC(C)C(C(O)CCC1(c2ccoc2)OCCO1)S(=O)(=O)c1ccccc1 (stereo not given)", "GI50": "> 100 µM (inactive)"}
{"compound": "CCOC(=O)c1csc(C(CSCc2ccc(OC)cc2)N2C(=O)c3ccccc3C2=O)n1 (stereo not given)", "GI50": "> 100 µM (inactive)"}
{"compound": "CC(=O)N(CN1C(=O)CCC1C(=O)O)c1ccc(C)cc1 (stereo not given)", "GI50": "> 100 µM (inactive)"}
{"compound": "CC1=C(C(=O)OCc2ccncc2)C(C2=C(C)SCCS2)C(C(=O)OCc2ccncc2)=C(C)N1", "GI50": "16.8 µM (inactive)"}
